# targetOrTestSystem: CaM (Bos taurus, UniProt P62157)
# Construct: made in house; host or cells: E. coli BL21 (DE3)
# runDescription: Pull-down assay with immobilized protein and LSM libraries
# Format: binding, bovine
# testSettings: H14 library; 1:2 stoichiometry assumed; read-out: Surface mapping KD (apparent)
observable: log10(Kd) (log10 of the value in µM)

smilesRepresentation: CSCC[C@@H](CC(=O)N[C@H]1CCCC[C@@H]1C(N)=O)NC(=O)[C@H]1CCCC[C@@H]1NC(=O)[C@H]1CCCC[C@@H]1NC(=O)C[C@H](CCSC)NC(=O)[C@H]1CCCC[C@@H]1N
resultValue: 1.20
--
smilesRepresentation: C[C@@H](CC(=O)N[C@H]1CCCC[C@@H]1C(=O)N[C@H]1CCCC[C@@H]1C(=O)N[C@@H](CCCNC(=N)N)CC(=O)N[C@H]1CCCC[C@@H]1C(N)=O)NC(=O)[C@H]1CCCC[C@@H]1N
resultValue: 2.10
--
smilesRepresentation: N=C(N)NCCC[C@@H](CC(=O)N[C@H]1CCCC[C@@H]1C(N)=O)NC(=O)[C@H]1CCCC[C@@H]1NC(=O)[C@H]1CCCC[C@@H]1NC(=O)C[C@H](Cc1c[nH]c2ccccc12)NC(=O)[C@H]1CCCC[C@@H]1N
resultValue: -0.30
--
smilesRepresentation: NC(=O)[C@H]1CCCC[C@@H]1NC(=O)C[C@H](CC(=O)O)NC(=O)[C@H]1CCCC[C@@H]1NC(=O)[C@H]1CCCC[C@@H]1NC(=O)C[C@H](CO)NC(=O)[C@H]1CCCC[C@@H]1N
resultValue: 2.35
--
smilesRepresentation: CSCC[C@@H](CC(=O)N[C@H]1CCCC[C@@H]1C(=O)N[C@H]1CCCC[C@@H]1C(=O)N[C@@H](CCCCN)CC(=O)N[C@H]1CCCC[C@@H]1C(N)=O)NC(=O)[C@H]1CCCC[C@@H]1N
resultValue: 1.52

###

# targetOrTestSystem: Gal-1 (Homo sapiens)
# Construct: made in house; host or cells: E. coli BL21(DE3)
# Sequence (P09382 whole entry): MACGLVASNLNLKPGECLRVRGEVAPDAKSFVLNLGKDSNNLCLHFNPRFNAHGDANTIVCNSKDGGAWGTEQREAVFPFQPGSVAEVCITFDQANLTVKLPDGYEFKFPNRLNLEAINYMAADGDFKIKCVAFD
# runDescription: Pull-down assay with immobilized protein and LSM libraries
# Type: binding
# testSettings: H12 library; 1:1 binding assumed; read-out: Surface mapping KD (apparent)
pKd: −log10 of the molar value.
Listed compounds paired with reported pKd

compound: NC(=O)C[C@@H](CC(=O)N[C@H]1CCC[C@@H]1C(=O)N[C@H]1CCC[C@@H]1C(N)=O)NC(=O)[C@H]1CCC[C@@H]1NC(=O)[C@H]1CCC[C@@H]1NC(=O)C[C@H](Cc1c[nH]c2ccccc12)NC(=O)[C@H]1CCC[C@@H]1NC(=O)[C@H]1CCC[C@@H]1N [H12 WN]
pKd: 3.57

compound: CC[C@H](C)[C@@H](CC(=O)N[C@H]1CCC[C@@H]1C(=O)N[C@H]1CCC[C@@H]1C(=O)N[C@@H](CC(=O)O)CC(=O)N[C@H]1CCC[C@@H]1C(=O)N[C@H]1CCC[C@@H]1C(N)=O)NC(=O)[C@H]1CCC[C@@H]1NC(=O)[C@H]1CCC[C@@H]1N [H12 ID]
pKd: 3.34

compound: NC(=O)[C@H]1CCC[C@@H]1NC(=O)[C@H]1CCC[C@@H]1NC(=O)C[C@H](CO)NC(=O)[C@H]1CCC[C@@H]1NC(=O)[C@H]1CCC[C@@H]1NC(=O)C[C@H](Cc1c[nH]c2ccccc12)NC(=O)[C@H]1CCC[C@@H]1NC(=O)[C@H]1CCC[C@@H]1N [H12 WS]
pKd: 3.38

compound: NC(=O)CC[C@@H](CC(=O)N[C@H]1CCC[C@@H]1C(=O)N[C@H]1CCC[C@@H]1C(N)=O)NC(=O)[C@H]1CCC[C@@H]1NC(=O)[C@H]1CCC[C@@H]1NC(=O)C[C@H](CCC(=O)O)NC(=O)[C@H]1CCC[C@@H]1NC(=O)[C@H]1CCC[C@@H]1N [H12 EQ]
pKd: 3.63

Data provenance: paper PMC8162404
